Biological target: serotonin (5-HT) reuptake (Rattus norvegicus)
Construct: synaptosomes are freshly isolated from areas of the rat brain; from tissue; host or cells: rat brain synaptosomes (P2 fraction)
Sequence (P31652 whole entry): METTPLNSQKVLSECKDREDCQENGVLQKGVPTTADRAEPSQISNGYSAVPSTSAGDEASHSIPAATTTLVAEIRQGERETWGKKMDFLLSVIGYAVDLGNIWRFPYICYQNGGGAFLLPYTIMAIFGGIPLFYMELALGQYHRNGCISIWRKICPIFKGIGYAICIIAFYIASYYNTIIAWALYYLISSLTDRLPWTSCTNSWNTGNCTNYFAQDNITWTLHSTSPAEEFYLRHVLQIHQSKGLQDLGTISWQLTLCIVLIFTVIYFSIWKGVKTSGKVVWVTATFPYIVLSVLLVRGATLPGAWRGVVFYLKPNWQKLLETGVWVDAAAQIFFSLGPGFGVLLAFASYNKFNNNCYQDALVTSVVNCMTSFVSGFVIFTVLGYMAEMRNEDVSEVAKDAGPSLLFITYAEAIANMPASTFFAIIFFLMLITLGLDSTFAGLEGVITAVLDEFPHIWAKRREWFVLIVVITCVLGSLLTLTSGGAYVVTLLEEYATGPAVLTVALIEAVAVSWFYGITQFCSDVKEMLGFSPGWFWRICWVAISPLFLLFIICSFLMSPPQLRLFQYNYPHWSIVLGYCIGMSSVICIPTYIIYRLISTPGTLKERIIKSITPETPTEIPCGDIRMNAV
Test: Inhibition of serotonin (5HT) reuptake in synaptosomes from rat brain
Assay type: biochemical
Conditions: test concentration of 10 μM
Method: Binding data of the compounds on the μ opioid receptor and data on the inhibition of reuptake of serotonin (5-HT) are given in Table 1. The data for the μ receptor were measured at a test concentration of 1 μM, and those for the serotonin reuptake at 10 μM. The values are stated in % inhibition. Inhibition of Serotonin (5HT) Reuptake In order to be able to carry out these in vitro studies, synaptosomes are freshly isolated from areas of the rat brain. […]
Give True when the value for 5-HT (inhibition of reuptake of serotonin, % inhibition) is at least 80%. Give False when it is less.

Exam item: Would you say COc1ccc(S(=O)(=O)N2CCCCC2COCC(=O)NC2CCC(C(c3cccs3)N(C)C)CC2)cc1OC (stereo not shown) shows 5-HT (inhibition of reuptake of serotonin, % inhibition) at minimum 80%?
Marked response: True

Exam item: Would you say COc1cc(C)c(S(=O)(=O)N2CCCC(OCC(=O)NCCC3CCC(C(c4cccc(F)c4)N(C)C)CC3)C2)c(C)c1C (stereo not shown) shows 5-HT (inhibition of reuptake of serotonin, % inhibition) at minimum 80%?
Marked response: True

Exam item: Would you say CN(C)C(c1cccc(F)c1)C1CCC(NC(=O)COC2CCN(S(=O)(=O)c3ccc(Cl)cc3Cl)C2)CC1 (stereo not shown) shows 5-HT (inhibition of reuptake of serotonin, % inhibition) at minimum 80%?
Marked response: True

Exam item: Would you say COc1ccc(S(=O)(=O)N2CCCCC2COCC(=O)NCCC2CCC(C(c3ccc(F)cc3)N(C)C)CC2)cc1 (stereo not shown) shows 5-HT (inhibition of reuptake of serotonin, % inhibition) at minimum 80%?
Marked response: True

Exam item: Would you say CN(C)C(c1ccc(Cl)cc1)C1CCC(CCNC(=O)COCCN(C)S(=O)(=O)c2ccc(OC(F)(F)F)cc2)CC1 (stereo not shown) shows 5-HT (inhibition of reuptake of serotonin, % inhibition) at minimum 80%?
Marked response: False

Exam item: Would you say Cc1ccc(S(=O)(=O)N(C)CCOCC(=O)NC2CCC(C(c3cccs3)N(C)C)CC2)cc1 (stereo not shown) shows 5-HT (inhibition of reuptake of serotonin, % inhibition) at minimum 80%?
Marked response: True
